Data origin, for the record: ChEMBL document CHEMBL1137284

- measured_target: Bile acid receptor (Homo sapiens, UniProt Q96RI1)
- Sequence (Q96RI1 whole entry): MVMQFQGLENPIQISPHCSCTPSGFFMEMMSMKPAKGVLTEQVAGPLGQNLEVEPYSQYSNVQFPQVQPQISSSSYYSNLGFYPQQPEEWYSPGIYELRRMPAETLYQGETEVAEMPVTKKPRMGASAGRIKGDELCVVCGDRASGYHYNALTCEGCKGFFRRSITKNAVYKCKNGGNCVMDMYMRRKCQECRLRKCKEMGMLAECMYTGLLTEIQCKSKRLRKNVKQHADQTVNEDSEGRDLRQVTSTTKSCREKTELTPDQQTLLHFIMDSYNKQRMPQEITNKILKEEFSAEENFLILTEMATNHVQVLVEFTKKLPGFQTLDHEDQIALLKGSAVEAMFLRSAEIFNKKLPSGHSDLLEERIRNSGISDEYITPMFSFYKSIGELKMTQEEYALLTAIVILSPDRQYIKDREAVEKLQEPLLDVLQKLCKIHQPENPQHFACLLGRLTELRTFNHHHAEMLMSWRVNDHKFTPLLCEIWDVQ
- assay_summary: Antagonist activity against FXR assessed as transactivation of luciferase reporter gene in CV1 cells
result_type: pIC50
pIC50 here is simply -log10 of the concentration when that concentration is written in mol/L.

Examples with answers:
compound	measured_target	readout_number
CC(=O)OC[C@@]12CCC3C(C)(C)CCC[C@]3(C)C1C[C@@H](OC(C)=O)[C@@]1(C)C2CC=C2CO[C@@H](O)[C@@H]21 (some centres undefined)	Bile acid receptor (Homo sapiens, UniProt Q96RI1)	5.09
CC(=O)O[C@@H]1CC2[C@@]3(C)CCCC(C)(C)C3CC[C@@]2(C)C2CC=C3CO[C@@H](O)[C@@H]3[C@]21C (some centres undefined)	Bile acid receptor (Homo sapiens, UniProt Q96RI1)	4.09
CC1(C)CCC[C@@]2(C)C1CC[C@]1(CO)C2C[C@@H](O)[C@@]2(C)C1CC=C1CO[C@@H](O)[C@@H]12 (some centres undefined)	Bile acid receptor (Homo sapiens, UniProt Q96RI1)	4.19

Kindly review the next compound as well.
Tell me measured pIC50 for CO[C@@H]1OCC2=CCC3[C@]4(C)CCC5C(C)(C)CCC[C@]5(C)C4C[C@@H](O)[C@]3(C)[C@H]21 (some centres undefined) please. 4.61
